- System: T1, His-tagged PCSK9Δhelix (human, UniProt Q8NBP7 31-152; Q8NBP7 168-692)
- T1 construct: Construct M1-Q692 with engineered TEV site, cut by TEV protease; new N-terminus of the catalytic domain is S-A168; also called His-PCSK9Δhelix
- T1 sequence (Q8NBP7 31-152, stated change not applied, chain 1 of 2): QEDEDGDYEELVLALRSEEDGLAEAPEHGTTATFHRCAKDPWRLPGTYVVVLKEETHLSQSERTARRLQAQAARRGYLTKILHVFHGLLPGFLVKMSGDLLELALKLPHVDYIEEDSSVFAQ
- T1 sequence (Q8NBP7 other isoform, or with tags, fused parts or gaps mutant, chain 2 of 2): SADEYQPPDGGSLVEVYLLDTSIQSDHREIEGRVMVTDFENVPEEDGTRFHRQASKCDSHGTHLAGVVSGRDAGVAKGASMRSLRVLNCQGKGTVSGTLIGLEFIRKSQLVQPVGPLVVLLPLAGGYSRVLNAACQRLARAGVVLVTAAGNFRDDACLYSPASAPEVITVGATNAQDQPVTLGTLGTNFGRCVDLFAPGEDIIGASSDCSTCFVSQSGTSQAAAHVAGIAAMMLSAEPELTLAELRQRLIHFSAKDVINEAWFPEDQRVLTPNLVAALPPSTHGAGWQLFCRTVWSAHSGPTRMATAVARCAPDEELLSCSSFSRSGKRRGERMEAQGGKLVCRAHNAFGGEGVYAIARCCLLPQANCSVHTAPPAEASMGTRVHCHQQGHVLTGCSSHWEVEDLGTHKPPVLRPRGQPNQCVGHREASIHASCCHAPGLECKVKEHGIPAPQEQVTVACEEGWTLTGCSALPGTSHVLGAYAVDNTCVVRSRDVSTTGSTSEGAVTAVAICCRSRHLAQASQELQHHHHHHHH
- Measurement protocol: TR-FRET competition; His-PCSK9Δhelix, competitor Ab20
Square brackets hold non-standard residues; d marks the D form. Ends that are not written are not given here. hArg = N=C(N)NCCCC[C@H](N)C(=O)O
Reported metric: pIC50
Formally, pIC50 is defined as -log10 of the concentration c, with c in mol/L.

// worked examples, pIC50 included
Binder: WNLVRIGLTR (also: further groups not given here, Structure printed only as a drawing) [Compound 189]
Value observed: 4.92
--
Binder: WNLV[hArg]IG-NH2 (N-terminus assumed; SMILES CC[C@H](C)[C@H](NC(=O)[C@H](CCCCNC(=N)N)NC(=O)[C@@H](NC(=O)[C@H](CC(C)C)NC(=O)[C@H](CC(N)=O)NC(=O)[C@@H](N)Cc1c[nH]c2ccccc12)C(C)C)C(=O)NCC(N)=O, also called WNLV(homoR)IG-NH2) [Compound 236]
Value observed: 4.66
--
Binder: WNLVRIGTLR (also: further groups not given here, Structure printed only as a drawing) [Compound 185]
Value observed: 6.41
--
Binder: WNLV[hArg]IGLLR (also: end groups and other groups only in drawing, Structure printed only as a drawing) [Compound 193]
Value observed: 5.82

Consider the record given below.
Q. Identify pIC50 associated with the binder WNLVRIGLLR (also: further groups not given here, Structure printed only as a drawing) [Compound 135]
A. 5.00

src = patent US20200283478A1
